Reported efficacy by item:
System: HCT116;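 further: Luminescence-based viability readout, five doses per compound, normalized against on-plate DMSO and empty-well controls, followed by dose-response curve fitting for every drug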
method_summary: efficacy (fitted maximal change in viability relative to DMSO control); higher = less cytotoxic (negative = loss of viability)
measurement_parameters: 48 h
Structures can show the parent of a compound that is named as a salt.
Field: numeric (%). Do not append units.

COC(=O)Nc1nc2cc(C(=O)c3cccs3)ccc2[nH]1 [Nocodazole] | -65.7
CC(C)(O)/C=C\C(=O)[C@](C)(O)[C@H]1[C@H](O)C[C@]2(C)[C@@H]3CC=C4[C@@H](C=C(O)C(=O)C4(C)C)[C@]3(C)C(=O)C[C@@]12C [Cucurbitacin I] | -77.1
O=C(NCc1ccncc1)C12C[C@H]3C[C@@H](C1)CC(c1ccc(Cl)cc1)(C3)C2 | -52.9

// returns efficacy for C[C@]12CC[C@H]3[C@@H](CC[C@@]45O[C@@H]4\C(=C(/C[C@]35C)C#N)O)[C@@H]1CC[C@@H]2O [Trilostane] with HCT116; value = -31.9

// returns efficacy for c1nc2c(NC3CCCCC3)nc(Nc3ccc(N4CCOCC4)cc3)nc2[nH]1 [Reversine] with HCT116; value = -114

// returns efficacy for `Cc1n[nH]c2ncc(C(=O)N3CCC[C@H]3c3ccc(Cl)cc3)cc12` with HCT116; value = -17.4

// returns efficacy for CCC(=C/[C@H](C)C/C=C/C(C)=C/[C@@H](C)C(=O)[C@@H](C)[C@H](O)[C@@H](C)C/C(C)=C/C(=O)O)/C=C/[C@@H]1OC(=O)C=C[C@@H]1C [Leptomycin B] with HCT116; value = -80.9

// returns efficacy for COc1ccccc1C(=O)Nc1cc2c(cc1N1CCCCC1)n(C)c(=O)n2C [GSK-5959] with HCT116; value = -9.01

// returns efficacy for NC(=O)c1cnc(-c2ccc(C3(N)CCC3)cc2)c(-c2ccccc2)c1 [AZD-26] with HCT116; value = -66.9

// returns efficacy for `C/N=c1\ncc2cc(-c3cc(N/C(O)=N/CCC(C)(C)C)c(F)cc3C)c(C)nc2[nH]1` with HCT116; value = -82.1

// returns efficacy for O=C1[C@H](Cc2ccc(O)cc2)N2C(=O)CCN(C(=O)NCc3ccccc3)[C@H]2CN1Cc1cccc2ccccc12 [ICG-001] with HCT116; value = -67.2

// returns efficacy for O=C(O)[C@@H](c1ccc(OCc2ccc3ccccc3n2)cc1)C1CCCC1 [Veliflapon] with HCT116; value = -10.1

// returns efficacy for CC(C)Oc1cc(Nc2nc(N[C@@H](C)c3ccc(F)cn3)ncc2Cl)n[nH]1 [AZ-23] with HCT116; value = -67.9

// returns efficacy for C[C@@H](CN1CC(=O)NC(=O)C1)N1CC(=O)NC(=O)C1 [Dexrazoxane hydrochloride] with HCT116; value = -22.3

// returns efficacy for NC1=NC=CC2=C1N=C[N]2[C@@H]3\C=C(CO)/[C@@H](O)[C@H]3O [3-Deazaneplanocin A] with HCT116; value = -55.4

// returns efficacy for COc1ccc(CNc2nc(N(CCO)CCO)nc3c2ncn3C(C)C)cc1 [CVT-313] with HCT116; value = -54.3

// returns efficacy for COc1cc(C)c(Sc2cnc(NC(=O)c3ccc(CNC(C)C(C)C)cc3)s2)cc1C(=O)N1CCN(C(C)=O)CC1 (stereo not given) [ITK Inhibitor] with HCT116; value = -132
